Test: Calcium Scale Inhibition Test
Settings: 50 ppm; 180° F.; samples at 2 and 4 hours

{"compound": "NCCNCC(O)CS(=O)(=O)O (centres unmarked)", "% Inhibition (Calcium Scale Inhibition)": "50%"}
{"compound": "O=S(=O)(O)CC(O)CNCCNCC(O)CS(=O)(=O)O (centres unmarked)", "% Inhibition (Calcium Scale Inhibition)": "45%"}
{"compound": "O=P(O)(O)CN(CCN(CC(O)CS(=O)(=O)O)CP(=O)(O)O)CC(O)CS(=O)(=O)O (centres unmarked)", "% Inhibition (Calcium Scale Inhibition)": "100%"}
{"compound": "NCCNCCNCC(O)CS(=O)(=O)O (centres unmarked)", "% Inhibition (Calcium Scale Inhibition)": "45%"}
{"compound": "O=P(O)(O)CN(CCN(CC(O)CS(=O)(=O)O)CP(=O)(O)O)CCN(CC(O)CS(=O)(=O)O)CP(=O)(O)O (centres unmarked)", "% Inhibition (Calcium Scale Inhibition)": "100%"}
